Values were extracted from the Human Domainome abundance scans (Beltran et al. 2025).

B1: Chromodomain-helicase-DNA-binding protein 4, residues 444 to 496; numbered along this chain, Q14839 (parent)
chain: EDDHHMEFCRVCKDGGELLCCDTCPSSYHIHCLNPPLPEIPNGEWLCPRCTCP

Variants of: B1
ASSAY_NAME: abundance fitness (aPCA) (normalised: wild type 0, dead -1); higher = more abundant; growth selection in yeast, the domain comes from the species named
EXPERIMENTAL_CONDITIONS: Homo sapiens
Listed below: abundance fitness values for each entry.
Lab note: write the figure by itself, no unit.

These recorded examples may help you get a feel for the data.
E39Q -0.052
V11C -0.255
P35W -0.593
P25V -0.18
E44D -0.156

Given the entry `C47N` , report its measured abundance fitness.
-0.559

Quick one: `C52Q`
0.145

Quick one: `R49N`
0.04

Quick one: `E44N`
0.095

Quick one: `L46K`
0.079

Quick one: `P41R`
-0.144
